Test system: CCRIS mutagenicity, Ames/micronucleus/aberration tests
Assay: CCRIS mutagenicity studies
Conditions: Test System: Ames Salmonella typhimurium; Strain/Indicator: TA1537; Metabolic Activation: Rat, Liver, S9, Sodium phenobarbital and 5,6-benzoflavone (10%); Method: Preincubation
The source made the active and inactive calls. How the calls were made is not given here.
// one of 1.0 for active, 0.0 for inactive, no free text

Tell me the recorded outcome of this test for "ClCCCl" .
0.0

Okay, and "Nc1cccc(N)c1" ?
1.0

Another compound: "C=CC(=O)OCCO"
0.0

Same lookup for "OCc1c2ccccc2cc2ccccc12" , please.
1.0

Field entry: "NCCS"
0.0

====

Tested on: CCRIS mutagenicity, Ames/micronucleus/aberration tests
Test: CCRIS mutagenicity studies
Conditions: Test System: E. COLI; Strain/Indicator: WP2 UVRA; Metabolic Activation: MOUSE, LIVER, S-9, AROCLOR 1254; Method: STANDARD PLATE
The source made the active and inactive calls. The rule behind the calls is not given here.
Hello, when you answer, please use one of the following outcomes: active, inactive

What was the test verdict on "Nc1ccc(Cl)c(N)c1" ?
inactive

And "Nc1cccc2c(N)cccc12" ?
inactive

What about this compound? O=CC1CO1 (stereo unspecified)
active

Request: "CC(=O)Nc1cccc2c1-c1ccccc1C2"
inactive

Ok, now "CCN(CC)N=O"
inactive

Also "CN(C)c1ccc(C(=O)c2ccc(N(C)C)cc2)cc1" ?
inactive

Ok, now "Nc1ccc2ccccc2c1"
inactive

Same thing, different compound: "CC(=O)OC/N=[N+](/C)[O-]"
inactive

Now give it for "COc1ccc(N)cc1" too.
inactive

Same read-out for "O=Nc1ccc(NO)cc1" ?
inactive

Then this compound: "CCOP(=S)(OCC)Oc1cc(C)nc(C(C)C)n1"
inactive

====

System: CCRIS mutagenicity, Ames/micronucleus/aberration tests
Test: CCRIS mutagenicity studies
Settings: Test System: AMES SALMONELLA TYPHIMURIUM; Strain/Indicator: TA1535; Metabolic Activation: NONE; Method: PREINCUBATION
Text: The CCRIS database contains chemical records with carcinogenicity, mutagenicity, tumor promotion, and tumor inhibition test results. It was developed by the National Cancer Institute (NCI). Data are derived from studies cited in primary journals, current awareness tools, NCI reports, and other sources. Test results have been reviewed by experts in carcinogenesis and mutagenesis. CCRIS provides historical information from the years 1985 - 2011. It is no longer updated. […]
The source made the active and inactive calls. No rule for the calls is given here.
Hello, when you answer, please use one of the following outcomes: active, inactive

Lab log entry: "Nc1c(Cl)cc(Cl)cc1Cl" — outcome as called in the assay?
inactive

Then what about the compound "COc1c(C(C)(C)C)cc([N+](=O)[O-])c(C)c1[N+](=O)[O-]" ?
inactive

And "NC(=O)c1ccccc1" ?
inactive

How about "O=S(=O)(O)c1cc(S(=O)(=O)O)c2c(N=Nc3ccccc3)c(O)ccc2c1" ?
inactive

Further, for "CCOC(=O)CBr" ?
inactive

Please answer likewise for COc1ccccc1CC1CO1 (centres undefined)
active

Can you check "CC(=O)NS(=O)(=O)c1ccc(N)cc1" next?
inactive

Input "O=C(O)CNC(=O)c1ccc([N+](=O)[O-])cc1"
inactive

Another: "CC(C)(S)C(=O)N[C@@H](CS)C(=O)O"
inactive

What do you get for CC(=O)C(N=Nc1ccc(-c2ccc(N=NC(C(C)=O)C(=O)Nc3ccccc3)c(Cl)c2)cc1Cl)C(=O)Nc1ccccc1 (centres undefined) ?
inactive

Cool, now "O=S1(=O)CCCC1"
inactive

Could you do the same for "O=C=Nc1ccc(Cc2ccc(N=C=O)cc2)cc1" , please?
inactive

Another compound: "NCC(=O)O"
inactive

Same lookup for CCCCCCCCCCCCCCCCC1CO1 (centres undefined) , please.
inactive

====

System: CCRIS mutagenicity, Ames/micronucleus/aberration tests
Assay: CCRIS mutagenicity studies
Conditions: Test System: AMES SALMONELLA TYPHIMURIUM; Strain/Indicator: TA98; Metabolic Activation: NONE; Method: STANDARD PLATE
Calls of active or inactive are those of the source. How the calls were made is not given here.
Choose one outcome from this list and give only that: class 1 for active, class 0 for inactive

Hi, do you know how "CN(C)CCCNc1c2ccccc2nc2c(N(CCO)CCO)ccc([N+](=O)[O-])c12" came out in this test?
class 1

Entry "O=C1O[C@@H]2[C@@H](O)CO[C@]2(O)[C@@]1(O)Cc1c[nH]c2ccccc12" please
class 0

"C=CC(=O)OC" ?
class 0

Subsequent entry: "C=CC(=O)OCCOC(=O)C=C"
class 0

Repeat for the following molecule: "Cc1cc2c(c(O)c1O)C(=O)c1c(O)cc(O)cc1C2=O"
class 0

Now the molecule "Nc1cc2nc3ccccc3nc2cc1O"
class 1

Another molecule to check: "Cc1ccccc1N=O"
class 0

Quick one: "Cc1cc(O)c2c(O)c3c(O)cccc3cc2c1"
class 0

"CC(C)c1c(N)ccc2ccccc12" , same question.
class 0

Now consider "O=c1[nH]cnc2c1ncn2[C@H]1CC[C@@H](CO)O1" .
class 0

Now consider "O=S(=O)(Nc1ccc(Cl)c(Cl)c1)c1cccc2cccnc12" .
class 0

Ok, now "CN(C)CCCNc1c2ccccc2nc2c(N(C)C)ccc([N+](=O)[O-])c12"
class 1

Also, "O=C1NCCN1c1ncc([N+](=O)[O-])s1" please.
class 1

====

Tested on: CCRIS mutagenicity, Ames/micronucleus/aberration tests
Test: CCRIS mutagenicity studies
Conditions: Test System: AMES SALMONELLA TYPHIMURIUM; Strain/Indicator: TA98; Metabolic Activation: RAT, LIVER, S-9, AROCLOR 1254 (10%); Method: PREINCUBATION
Active and inactive are the calls of the source. No rule for the calls is given here.
Pick one and only one: active, inactive

Outcome logged for NC(Cc1ccc(F)cc1)C(=O)O (centres undefined) in this assay:
inactive

Further, for "O=C=Nc1ccc(Cc2ccc(N=C=O)cc2)cc1" ?
inactive

Now the molecule "COc1cc(/C=C/C(=O)CC(=O)/C=C/c2ccc(O)c(OC)c2)ccc1O"
inactive

Item: "Nc1c(Cl)cc(Cl)cc1Cl"
inactive

// query: "CCN(CC)c1ccc2c(-c3ccccc3C(=O)O)c3ccc(=[N+](CC)CC)cc-3oc2c1"
inactive

Also "O=C1c2c(Br)c(Br)c(Br)c(Br)c2C(=O)N1CCN1C(=O)c2c(Br)c(Br)c(Br)c(Br)c2C1=O" ?
inactive

Try CCCCCCCCCCCCCCCCC1CO1 (centres undefined) next.
inactive

Queued: "C=CC(=O)OCCCCCCOC(=O)C=C"
inactive

Moving on to "CCCCCCC(=O)O"
inactive

What about this molecule? "CN(C)c1ccc(N(C)C)cc1"
inactive

Repeat for the following molecule: "Cc1ccccc1OP(=O)(Oc1ccccc1)Oc1ccccc1"
inactive

Check "O=C(Cl)c1ccccc1[N+](=O)[O-]" too.
active

Also need "O=[N+]([O-])c1ccc(Nc2ccc(O)cc2)c([N+](=O)[O-])c1" , thanks.
active

Likewise for "NCCNCCNCCN" ?
active

How about this molecule: "CCCCCCCCCCCC(=O)[O][Sn]([CH2]CCC)([CH2]CCC)[O]C(=O)CCCCCCCCCCC"
inactive

Another molecule: "NCCCNCCCN"
inactive

And what about the molecule "O=C1c2ccccc2C(=O)c2c(O)cccc21" ?
inactive

Also check "CC1CCCC1"
inactive

// query: "O=C1NC(=O)C(c2ccccc2)(c2ccccc2)N1"
inactive

Same again, this time with "Cc1c(N)cccc1N"
active

// same read-out, input: CCCCC(CC)CO (centres undefined)
inactive

Field entry: "Cc1ccc(C)c(N)c1"
active

Lookup "COCCOCCOC"
inactive

Request: "C=CC(=O)OC"
inactive

N#CC(O)c1ccccc1 (centres undefined) ?
inactive

And what about the molecule "S=[Se]" ?
inactive

Next molecule up: CCCCC(CC)COC(=O)CCCCCCCCC(=O)OCC(CC)CCCC (centres undefined)
inactive

Entry to check: "ClCCCl"
inactive

// next record "NC(=O)N/N=C/c1ccc([N+](=O)[O-])o1"
active

Note, next up: "Nc1cc(Cl)c([N+](=O)[O-])cc1O"
active

Then this molecule: "O=c1c2[nH]c3ccccc3c2nnn1/N=C/c1ccc(O)cc1"
active

And what about the molecule "COc1c(C(C)(C)C)cc([N+](=O)[O-])c(C)c1[N+](=O)[O-]" ?
inactive

Now the same for "c1cnc2c(c1)ccc1cccnc12"
inactive

Next entry: "NS(=O)(=O)c1cc(C(=O)O)c(NCc2ccco2)cc1Cl"
inactive

// query: "Cc1ccc(S(=O)(=O)O)cc1C"
inactive

Please answer likewise for "CCCCCCCCCCCCCCCCCC[N+](C)(C)Cc1ccccc1"
inactive

# iterate: "COc1ccc(C(=O)Nc2ccccc2)cc1[N+](=O)[O-]"
active

Cool, now "COC(=O)c1ccc(C(=O)OC)cc1"
inactive

Next molecule up: "Cc1ccc(NC(N)=O)cc1"
inactive

Would you kindly repeat that for "CC(=O)[O][Hg][c]1ccccc1" ?
inactive

Next up: "CN(C)/N=N/c1nc[nH]c1C(N)=O"
active

And "Nc1cccc(N)c1" ?
active

Would you mind doing "CC(=O)c1ccccc1[N+](=O)[O-]" as well?
inactive

Queued: "Cc1cc(-c2ccc(N)c(C)c2)ccc1N"
active

Thanks! And COC(=O)C(c1ccccc1)C1CCCCN1 (centres undefined) ?
inactive

Try this molecule too: "Nc1ccc(Cc2ccc(N)c(Cc3ccc(N)cc3)c2)cc1"
active

Now the same for CC(O)CNCC(C)O (centres undefined)
inactive

Next up: "CC(C)(C)C(=O)C1C(=O)c2ccccc2C1=O"
inactive

Could you do the same for "CCc1cc(C(N)=S)ccn1" , please?
inactive

Repeat for the following molecule: "O=C1c2c(O)ccc([N+](=O)[O-])c2C(=O)c2c([N+](=O)[O-])ccc(O)c21"
active

Query "ClCc1ccccc1" next
inactive

Again, but for "CCCCCN"
inactive

Next molecule up: CCCCCCCC/C=C/CCCCCCCC(=O)OCCOCC(OCCO)C1OCC(OCCO)C1OCCO (centres undefined)
inactive

Can you check "CCCCNCC" next?
inactive

Follow-up entry: "Nc1ccc(N)c2ccccc12"
inactive

Consider next the molecule "CCCCOCCOCCSC#N" in the same way.
inactive

Same for C1=CC2C3C=CC(C3)C2C1 (centres undefined)
inactive

Try this molecule next: "C=CC(=O)OCC(CO)(COC(=O)C=C)COC(=O)C=C"
inactive

Can you check CC(CCl)OP(=O)(OC(C)CCl)OC(C)CCl (centres undefined) next?
inactive
